- Protocol Summary: physchem
- Reported Conditions: aqueous solution at pH 1.2, pH 1.2, simulated gastric fluid

{"columns": ["Compound", "solubility (mg/mL)"],
 "data": [
  ["COC(=O)[C@H](c1ccccc1Cl)N1CCc2sccc2C1 [Clopidogrel, clopidogrel]", 5.2]
]}
